Origin of measurements: BindingDB's records for doi:10.3109/14756366.2010.521745

Dear all, this message contains pIC50 results, target or system UniProt Q00024.
pIC50: −log10 of the molar value.
Reported Endpoint: pIC50

P: O=C(c1cc(O)c(O)c(O)c1)c1ccc(O)cc1O [Polyhydroxy benzophenone, 6]
Q: O=C(c1ccccc1O)c1ccc(O)c(O)c1O [Polyhydroxy benzophenone, 15]
R: O=C(c1cc(O)c(O)c(O)c1)c1ccc(O)c(O)c1O [Polyhydroxy benzophenone, 10]
Number of compounds to sort: 3. Sort criterion: pIC50, ascending. Dear reader, please state the labels in the requested order. P, Q, R

a: O=C(c1ccc(O)cc1)c1cc(O)c(O)c(O)c1 [Polyhydroxy benzophenone, 14]
b: COc1cc(C(=O)c2ccc(O)c(O)c2O)ccc1O [Polyhydroxy benzophenone, 9]
Rank a against b by their pIC50 values and give the higher one. Lab log: write the label of the selected item as the result. b

###

# Tgt: Polyphenol oxidase 1 (White button mushroom)
# Sequence (Q00024 whole entry): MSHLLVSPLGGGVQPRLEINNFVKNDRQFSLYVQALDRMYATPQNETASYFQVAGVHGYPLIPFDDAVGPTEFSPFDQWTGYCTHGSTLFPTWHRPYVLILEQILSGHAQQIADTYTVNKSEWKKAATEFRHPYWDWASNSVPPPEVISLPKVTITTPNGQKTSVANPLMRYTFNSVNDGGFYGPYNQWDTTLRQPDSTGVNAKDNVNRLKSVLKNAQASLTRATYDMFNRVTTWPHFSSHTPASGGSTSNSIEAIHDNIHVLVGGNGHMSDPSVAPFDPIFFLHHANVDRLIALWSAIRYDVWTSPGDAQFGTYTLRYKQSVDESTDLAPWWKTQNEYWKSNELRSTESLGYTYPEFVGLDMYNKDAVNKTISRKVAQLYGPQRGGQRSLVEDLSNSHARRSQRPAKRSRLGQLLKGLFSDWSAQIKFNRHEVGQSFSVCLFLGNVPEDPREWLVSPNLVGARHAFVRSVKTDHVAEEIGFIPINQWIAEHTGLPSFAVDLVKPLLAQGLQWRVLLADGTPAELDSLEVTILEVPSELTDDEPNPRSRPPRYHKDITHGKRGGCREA
Reported Endpoint: IC50 (µM)

{"columns": ["Compound", "Units Symbol", "IC50"],
 "data": [
  ["O=C(c1ccccc1)c1ccc(O)c(O)c1O [phenyl(2,3,4-trihydroxyphenyl)methanone]", "µM", 10.5],
  ["O=C(c1ccc(O)cc1O)c1ccc(O)c(O)c1O [Polyhydroxy benzophenone, 8]", "µM", 10.1]
]}

###

Each entry below carries its reported IC50.
# Tgt: Polyphenol oxidase 1 (White button mushroom, UniProt Q00024)
# Sequence (Q00024 whole entry): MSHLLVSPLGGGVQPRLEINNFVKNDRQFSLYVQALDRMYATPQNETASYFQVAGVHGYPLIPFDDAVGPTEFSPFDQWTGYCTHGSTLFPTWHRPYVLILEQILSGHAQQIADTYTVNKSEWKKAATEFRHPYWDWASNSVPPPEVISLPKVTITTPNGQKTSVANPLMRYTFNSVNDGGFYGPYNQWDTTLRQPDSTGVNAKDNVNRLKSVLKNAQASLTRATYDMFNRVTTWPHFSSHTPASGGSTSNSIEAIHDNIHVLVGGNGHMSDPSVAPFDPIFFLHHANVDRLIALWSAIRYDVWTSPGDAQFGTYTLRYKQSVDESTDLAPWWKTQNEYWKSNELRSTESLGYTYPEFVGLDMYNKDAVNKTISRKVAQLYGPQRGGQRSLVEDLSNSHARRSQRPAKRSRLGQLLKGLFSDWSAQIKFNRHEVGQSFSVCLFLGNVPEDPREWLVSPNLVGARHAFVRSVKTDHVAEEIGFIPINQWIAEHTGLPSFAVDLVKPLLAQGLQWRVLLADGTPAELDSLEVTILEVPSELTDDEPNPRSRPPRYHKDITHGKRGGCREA

Below, 2 compounds whose answers are already recorded.
{"columns": ["Compound", "Reported Endpoint", "Result"],
 "data": [
  ["O=C(c1ccc(O)cc1O)c1c(O)cc(O)cc1O [Polyhydroxy benzophenone, 11]", "IC50", "> 200 µM"],
  ["O=C(c1cccc(O)c1)c1ccc(O)cc1O [Polyhydroxy benzophenone, 12]", "IC50", "> 200 µM"]
]}

Given COc1cc(C(=O)c2ccc(O)cc2O)ccc1O [Polyhydroxy benzophenone, 5] , state its recorded IC50. > 200 µM

What measured IC50 goes with O=C(c1ccc(O)cc1)c1ccc(O)c(O)c1O [hsp90_136] ? > 100 µM
